Below: a set of entries, each annotated with reported IC50.
Target: STAT3 (Homo sapiens)
Construct: plasmid pSTAT3-TA-luc), which contains a stably operating STAT3 promoter; endogenous in cells
Experiment: STAT3 reporter gene assay (luciferase), LNCaP stable cell line (pSTAT3-TA-luc), IL-6 stimulation
Assay type: cell-based
Enter your answer as a number in µM; do not include the unit.

Below, each entry is followed by its recorded IC50 result.
Compound: CS(=O)(=O)Nc1ccc2sc(C(=O)Nc3cc(Cl)nc(Oc4ccc(Cl)cc4)c3)cc2c1 [Example 489]
IC50 [µM]: 0.11

Compound: CC(C)Oc1cc(OC(F)(F)F)cc(C(C)(C)c2cc(Cl)cc(NC(=O)c3cc4ccc(NS(C)(=O)=O)nc4[nH]3)c2)c1 [Example 100]
IC50 [µM]: 0.042

Compound: CC(C)Oc1cc(Oc2cc(Cl)cc(NC(=O)c3cc4cc(NS(C)(=O)=O)ccc4s3)c2)cc(OC(F)(F)F)c1 [Example 452]
IC50 [µM]: 0.079

Compound: CC(C)(c1cc(Cl)cc(NC(=O)c2cc3cc(NS(C)(=O)=O)ccc3s2)c1)c1cc(OC2CC2)cc(OC(F)(F)F)c1 [Example 79]
IC50 [µM]: 0.014

Compound: CC(C)COc1cc(NC(=O)c2cc3ccc(NS(C)(=O)=O)cc3[nH]2)cc(S(=O)(=O)c2cccc(OC(F)(F)F)c2)c1 [Example 400]
IC50 [µM]: 3.2

// query IC50 value for entry CC(C)Oc1cc(CN2CCNCC2)cc(C(C)(C)c2cc(Br)cc(NC(=O)c3cc4cc(NS(C)(=O)=O)ccc4s3)c2)c1 [Example 124]
4

Please give the measured IC50 for this compound: CS(=O)(=O)Nc1ccc2cc(C(=O)Nc3cc(OC(F)F)cc(C4(c5ccc(F)cc5)CC4)c3)[nH]c2c1 [Example 428]
1

---

This section presents compounds with their documented log10(IC50) values.
Biological target: STAT3 (Homo sapiens, UniProt P40763)
Construct: plasmid pSTAT3-TA-luc), which contains a stably operating STAT3 promoter; endogenous in cells
Sequence (P40763 whole entry): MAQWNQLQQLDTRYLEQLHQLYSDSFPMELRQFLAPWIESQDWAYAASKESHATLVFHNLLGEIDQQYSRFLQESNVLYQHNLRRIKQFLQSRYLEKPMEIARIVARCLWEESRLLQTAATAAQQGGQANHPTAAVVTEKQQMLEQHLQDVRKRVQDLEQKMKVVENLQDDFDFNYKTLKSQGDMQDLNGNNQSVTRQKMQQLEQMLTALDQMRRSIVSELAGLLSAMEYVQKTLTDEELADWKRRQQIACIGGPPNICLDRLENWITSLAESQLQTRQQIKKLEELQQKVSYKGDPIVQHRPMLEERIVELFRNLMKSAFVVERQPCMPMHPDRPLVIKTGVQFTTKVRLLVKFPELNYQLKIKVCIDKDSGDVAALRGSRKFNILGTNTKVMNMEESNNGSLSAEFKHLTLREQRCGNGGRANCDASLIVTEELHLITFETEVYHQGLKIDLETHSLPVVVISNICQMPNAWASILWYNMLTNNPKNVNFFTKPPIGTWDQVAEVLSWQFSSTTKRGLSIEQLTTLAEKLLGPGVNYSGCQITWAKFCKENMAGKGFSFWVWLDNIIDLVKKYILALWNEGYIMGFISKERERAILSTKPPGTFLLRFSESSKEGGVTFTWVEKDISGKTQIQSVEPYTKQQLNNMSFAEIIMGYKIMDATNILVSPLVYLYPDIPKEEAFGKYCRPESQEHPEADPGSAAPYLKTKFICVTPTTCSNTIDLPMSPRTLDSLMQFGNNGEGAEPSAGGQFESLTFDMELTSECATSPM
Test: STAT3 reporter gene assay (luciferase), LNCaP stable cell line (pSTAT3-TA-luc), IL-6 stimulation
Format: cell-based
Please be aware that the numbers have been log10-transformed from IC50 in µM.

Some compounds with known log10(IC50) results, for comparison:
Compound: COc1cc(OC(F)(F)F)cc(-c2cc(Cl)cc(NC(=O)c3cc4cc(N(C)S(C)(=O)=O)c(F)cc4s3)c2)c1
Outcome Measure: log10(IC50)
Numeric Result: -1.00
--
Compound: CN(C)S(=O)(=O)N1CCN(Cc2cc(OC(F)(F)C(F)F)cc(C(C)(C)c3cc(Br)cc(NC(=O)c4cc5cc(NS(C)(=O)=O)ccc5s4)c3)c2)CC1
Outcome Measure: log10(IC50)
Numeric Result: -0.96
--
Compound: CS(=O)(=O)Nc1ccc2sc(C(=O)Nc3cc(Br)cc(-c4ccc(F)cc4F)c3)cc2c1
Outcome Measure: log10(IC50)
Numeric Result: -1.17
--
Compound: CS(=O)(=O)Nc1ccc2cc(C(=O)Nc3cc(-c4ccc[nH]4)cc(-c4ccc(F)cc4F)c3)[nH]c2c1
Outcome Measure: log10(IC50)
Numeric Result: -0.09
--
Compound: COc1ccc(S(=O)(=O)c2cccc(NC(=O)c3cc4ccc(NS(C)(=O)=O)cc4[nH]3)c2)cc1
Outcome Measure: log10(IC50)
Numeric Result: 0.52

Recorded log10(IC50) for `CC(C)(c1cc(Br)cc(NC(=O)c2cc3ccc(NS(C)(=O)=O)cc3[nH]2)c1)c1cccc(OCC(N)=O)c1` , please?
0.73

Give its log10(IC50) value. Item: `COc1cccc(-c2cc(NC(=O)c3cc4ccc(NS(C)(=O)=O)cc4[nH]3)cc(-c3ccc(F)cc3F)c2)n1`
-1.05

Query (compound): `COc1cccc(C(C)(C)c2cccc(NC(=O)c3cc4ccc(NS(C)(=O)=O)cc4[nH]3)c2)c1` ; field requested: log10(IC50)
-0.59

Which log10(IC50) value belongs to `CNS(=O)(=O)Nc1ccc2cc(C(=O)Nc3cc(Br)cc(-c4ccc(F)cc4F)c3)[nH]c2c1` ?
0.04

---

System: HEL92.1.7
Test: Cell growth inhibition assay, blood cancer cell line HEL92.1.7
Type: cell-based
Conditions: Homo sapiens, HEL 92.1.7, HEL92.1.7 blood cancer cell line
Outcome Measure: IC50 (µM)
Quick reminder: number only, in µM, skip the unit.

Worked examples follow.
Substance Smiles: CC(C)Oc1cc(-c2cnn(C)c2)cc(C(C)(C)c2cc(Cl)cc(NC(=O)c3cc4cc(NS(C)(=O)=O)ccc4s3)c2)c1
Outcome Measure: IC50
Unit Annotation: µM
Numeric Result: 0.48

Substance Smiles: CC(C)(c1cc(Br)cc(NC(=O)c2cc3cc(NS(C)(=O)=O)ncc3s2)c1)c1cc(OC(F)(F)F)cc(OC(F)(F)C(F)F)c1
Outcome Measure: IC50
Unit Annotation: µM
Numeric Result: 0.22

Substance Smiles: CC(C)Oc1cc(OC(F)(F)F)cc(C(C)(C)c2cc(Cl)cc(NC(=O)c3cc4cc(NS(C)(=O)=O)c(F)cc4s3)c2)c1
Outcome Measure: IC50
Unit Annotation: µM
Numeric Result: 0.014

Substance Smiles: CC(C)COc1cc(OC(F)(F)F)cc(C(C)(C)c2cc(Cl)cc(NC(=O)c3cc4cc(NS(C)(=O)=O)ccc4s3)c2)c1
Outcome Measure: IC50
Unit Annotation: µM
Numeric Result: 0.087

Substance Smiles: COc1ccc(C(C)(C)c2cc(Cl)cc(NC(=O)c3cc4cc(NS(C)(=O)=O)ccc4s3)c2)c(OC)c1
Outcome Measure: IC50
Unit Annotation: µM
Numeric Result: 0.34

Consider the compound `COc1cc(OC(F)(F)F)cc(-c2cc(Cl)cc(NC(=O)c3cc4cc(NS(C)(=O)=O)ccc4s3)c2)c1` and give its measured IC50.
0.83

Consider the compound shown here: `COc1ccc(C(C)(C)c2cc(Cl)cc(NC(=O)c3cc4cc(NS(C)(=O)=O)ccc4s3)c2)cc1OC` What is its recorded IC50?
0.39

State the recorded IC50 for this entry: `CC(C)Oc1cc(OC(F)(F)F)cc(C(C)(C)c2cc(Cl)cc(NC(=O)c3cc4cc(N5CCCCS5(=O)=O)ccc4s3)c2)c1`
0.066

What IC50 value was documented for this compound, `CC(C)(c1cc(Br)cc(NC(=O)c2cc3ccc(NS(C)(=O)=O)cc3[nH]2)c1)c1ccc(F)cc1F` ?
1.8

So what does the record say about IC50 for `COc1ccc(C(C)(C)c2cc(Cl)cc(NC(=O)c3cc4cc(NS(C)(=O)=O)ccc4s3)c2)cc1` ?
0.13

// IC50 lookup, key: `CS(=O)(=O)Nc1ccc2sc(C(=O)Nc3cc(Br)cc(-c4ccc(F)cc4F)c3)cc2c1`
0.24

---

System: DU-145
Experiment: Cell growth inhibition assay, prostate cancer cell line DU-145
Format: cell-based
Settings: Homo sapiens, DU-145 prostate cancer cell line
Outcome Measure: IC50 (µM)
Number only, in µM; omit the unit.

Worked examples, 2 compounds total:
Compound: CC(C)Oc1cc(CN2CCCC2)cc(C(C)(C)c2cc(Cl)cc(NC(=O)c3cc4cc(NS(C)(=O)=O)ccc4s3)c2)c1 [Example 125]
IC50 [µM]: 0.46
//
Compound: CS(=O)(=O)Nc1ccc2sc(C(=O)Nc3cc(Cl)cc(-c4cnccn4)c3)cc2c1 [Example 338]
IC50 [µM]: 0.43

Turning now to a further compound:
Record request: IC50 value, item CC(C)Oc1cc(OC(F)(F)F)cc(C(C)(C)c2cc(Cl)cc(NC(=O)c3cc4cc(NS(=O)(=O)C(C)C)ccc4s3)c2)c1 [Example 203]
0.008

---

System: DU-145
Test: Cell growth inhibition assay, prostate cancer cell line DU-145
Type: cell-based
Conditions: Homo sapiens, DU-145 prostate cancer cell line
Outcome Measure: IC50 (µM)
Unit µM implied. Number only.

Solved entries (count: 6):
Substance Smiles: CS(=O)(=O)Nc1cc2cc(C(=O)Nc3cc(Cl)cc(OC4CCCCC4)c3)sc2cc1Cl
Outcome Measure: IC50
Numeric Result: 0.048

Substance Smiles: CC(C)Oc1cc(OC(F)(F)F)cc(C(C)(C)c2cc(Cl)cc(NC(=O)c3cc4cc(N5CCCS5(=O)=O)ccc4s3)c2)c1
Outcome Measure: IC50
Numeric Result: 0.022

Substance Smiles: CC(C)Oc1cc(CN2CCN(C(=O)OC(C)(C)C)CC2)cc(C(C)(C)c2cc(Br)cc(NC(=O)c3cc4cc(NS(C)(=O)=O)ccc4s3)c2)c1
Outcome Measure: IC50
Numeric Result: 0.042

Substance Smiles: CS(=O)(=O)Nc1ccc2sc(C(=O)Nc3cc(Cl)cc(-c4ccc(F)cc4F)n3)cc2c1
Outcome Measure: IC50
Numeric Result: 0.034

Substance Smiles: CS(=O)(=O)Nc1ccc2sc(C(=O)Nc3cc(Cl)cc(Oc4cc(F)cc(Cl)c4)c3)cc2c1
Outcome Measure: IC50
Numeric Result: 0.086

Substance Smiles: CS(=O)(=O)Nc1ccc2sc(C(=O)Nc3cc(Cl)cc(Oc4cc(Cl)cc(Cl)c4)c3)cc2c1
Outcome Measure: IC50
Numeric Result: 0.16

What does the data say about its IC50? Entry: `CS(=O)(=O)Nc1ccc2sc(C(=O)Nc3cc(Cl)cc(Oc4ccc(C#N)cc4)c3)cc2c1`
0.19
